- Species: Homo sapiens
- assay procedure: Inhibition of recombinant C-terminal His-tagged cN2 N-terminal 30 amino acid deletion mutant (unknown origin) expressed in Escherichia coli BL21 using IMP as substrate at 1 mM after 5 mins by green malachite phosphate assay
readout kind: inhibition (%)

CCOP(=O)(C[C@@H](O)[C@H]1O[C@@H](n2ccc(=O)[nH]c2=O)[C@H](O)[C@@H]1O)OCC    11

P = O=c1[nH]c(=O)n([C@@H]2O[C@H]([C@H](O)CP(=O)(O)O)[C@@H](O)[C@H]2O)cc1-c1ccccc1
Q = CC(C)(C)C#Cc1cn([C@@H]2O[C@H]([C@H](O)CP(=O)(O)O)[C@@H](O)[C@H]2O)c(=O)nc1N
[ask] Which entry has a larger number for inhibition, P or Q ? Lab log: write the label of the selected item as the result.
[reply] Q
(Q: 46%, P: 24%)

P = O=c1ccn([C@@H]2O[C@H]([C@H](O)CP(=O)(O)O)[C@@H](O)[C@@H]2O)c(=O)[nH]1
Q = Nc1ccn([C@@H]2O[C@H]([C@H](O)CP(=O)(O)O)[C@@H](O)[C@H]2O)c(=O)n1
[ask] Which entry has a larger number for inhibition, P or Q ? Lab log: write the label of the selected item as the result.
[reply] Q

a = CCOP(=O)(C[C@@H](O)[C@H]1O[C@@H](n2ccc(N)nc2=O)[C@@H](O)[C@@H]1O)OCC
b = O=c1ccn([C@@H]2O[C@H]([C@@H](O)CP(=O)(O)O)[C@@H](O)[C@H]2O)c(=O)[nH]1
[ask] Which entry has a larger number for inhibition, a or b ? Lab log: write the label of the selected item as the result.
[reply] b

I = O=c1ccn([C@@H]2O[C@H]([C@H](O)CP(=O)(O)O)[C@H](O)[C@H]2O)c(=O)[nH]1
II = CCOP(=O)(C[C@@H](O)[C@H]1O[C@@H](n2ccc(=O)[nH]c2=O)[C@@H](O)[C@@H]1O)OCC
III = CCCCC#Cc1cn([C@@H]2O[C@H]([C@H](O)CP(=O)(O)O)[C@@H](O)[C@H]2O)c(=O)nc1N
IV = Nc1nc(=O)n([C@@H]2O[C@H]([C@H](O)CP(=O)(O)O)[C@@H](O)[C@H]2O)cc1-c1ccccc1
V = CCOP(=O)(C[C@@H](O)[C@H](CO)O[C@H](CO)n1ccc(=O)[nH]c1=O)OCC
[ask] Order each entry by recorded inhibition, climbing from the minimum. Please, when replying, give the labels in the order that was requested.
[reply] II, V, I, III, IV
